test-method-notes: Waters ACQUITY UPLC BEH C18, 100 × 2.1 mm, 1.7 µm, 40 °C, 0.3 to 0.4 mL/min, estimated dead time 0.63 min; A: water + 0.1% formic acid; B: methanol + 0.1% formic acid; gradient (min/%B) 0/0.5 0.1/0.5 10/80 10.1/99.5 12/99.5
condition-set: stereoisomer not certain
Response key: T means LC retention time >= 6 min; F means LC retention time < 6 min.

As a guide, the following entries are already answered.
compound: CC(C)=CCc1c(O)ccc(-c2coc3cc(O)cc(O)c3c2=O)c1O
group-label: T

compound: NCCCCNC(=O)C=Cc1ccccc1
group-label: F

compound: CC(C)=CCc1cc(CCc2cc(O)c(CC=C(C)C)c(O)c2)ccc1O
group-label: T

compound: CCCCCC(O)C(O)CC=CCCCCCCCC(=O)O (stereo unspecified)
group-label: T

Task: Quick check: does CC1CCC2C(C)C3C(CC4C5C(=O)C=C6CC(OC7OC(CO)C(OC8OC(C)C(O)C(O)C8O)C(O)C7OC7OC(C)C(O)C(O)C7O)CCC6(C)C5CCC43C)N2C1 (stereo unspecified) have LC retention time greater than or equal to 6 min?
Result: F

Task: Quick check: does CC(=O)N1CC(C)CCC12OC1CC3C4CC=C5CC(O)CCC5(C)C4CCC3(C)C1C2C (stereo unspecified) have LC retention time greater than or equal to 6 min?
Result: T

Task: Quick check: does COc1cc(C=CC(=O)OCC2OC(OC3C(c4c(O)cc5oc(-c6ccc(O)c(O)c6)cc(=O)c5c4O)OC(CO)C(O)C3O)C(O)C(O)C2O)ccc1O (stereo unspecified) have LC retention time greater than or equal to 6 min?
Result: F

Task: Quick check: does COc1cc(C(O)C(CO)Oc2c(OC)cc(-c3cc(=O)c4c(O)cc(OC5OC(COC(=O)CC(=O)O)C(O)C(O)C5O)cc4o3)cc2OC)ccc1O (stereo unspecified) have LC retention time greater than or equal to 6 min?
Result: F

Task: Quick check: does CC1(C)CC2C3=CCC4C5(C)CCC(OC6OC(C(=O)O)C(O)C(O)C6OC6OC(CO)C(O)C(O)C6OC6OC(CO)C(O)C(O)C6O)C(C)(CO)C5CCC4(C)C3(C)CCC2(C)C(O)C1O (stereo unspecified) have LC retention time greater than or equal to 6 min?
Result: F

Task: Quick check: does COc1cc(-c2oc3cc(OC4OC(CO)C(O)C(O)C4O)cc(O)c3c(=O)c2OC2OC(CO)C(O)C(O)C2O)cc(OC2OC(CO)C(O)C(O)C2O)c1O (stereo unspecified) have LC retention time greater than or equal to 6 min?
Result: F

Task: Quick check: does O=C1CCCC2C3CCCN4CCCC(CN12)C34 (stereo unspecified) have LC retention time greater than or equal to 6 min?
Result: F

Task: Quick check: does O=C(O)CC(=O)OCC1OC(Oc2cc(O)c3c(=O)cc(-c4ccc(O)c(O)c4)oc3c2)C(O)C(O)C1O (stereo unspecified) have LC retention time greater than or equal to 6 min?
Result: F

Task: Quick check: does CC1OC(OC2C(OC3C(OC4CCC5(C)C(CCC6(C)C5CC=C5C7CC(C)(C)CC(O)C7(C)CCC56C)C4(C)CO)OC(C(=O)O)C(O)C3O)OC(C(=O)O)C(O)C2O)C(O)C(O)C1O (stereo unspecified) have LC retention time greater than or equal to 6 min?
Result: T
